# Assay system: T1, human MSLN-FL-his protein (human, UniProt Q13421 296-580)
# T1 construct: made in HEK293E cells, purified on nickel column; also called hMSLN-FL-his; human MSLN full-length protein; not shown: His tag
# T1 sequence (Q13421 other isoform, or with tags, fused parts or gaps): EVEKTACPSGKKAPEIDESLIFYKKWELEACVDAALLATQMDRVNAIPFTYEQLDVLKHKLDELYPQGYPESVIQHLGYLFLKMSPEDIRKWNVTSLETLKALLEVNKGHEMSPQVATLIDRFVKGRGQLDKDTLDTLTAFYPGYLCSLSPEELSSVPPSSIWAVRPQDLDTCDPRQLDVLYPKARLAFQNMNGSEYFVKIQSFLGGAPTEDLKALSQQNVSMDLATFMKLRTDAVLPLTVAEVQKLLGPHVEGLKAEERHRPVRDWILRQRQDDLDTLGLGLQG
# Procedure details: SPR (Biacore), antibody captured on Protein A chip;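 also: flow cell at 25 °C, antigen injected for 240 s at five concentrations from 200 nM downward, dissociation followed up to 600 s, double-referenced, fitted with Langmuir 1:1 model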
Observation type: kon (M⁻¹ s⁻¹)
Response body: numeric value in M⁻¹ s⁻¹, unit text excluded.

>>> endpoint_result("S009-F8-15.19 (antibody, human IgG1, kappa, V domains shown, human-murine chimeric antibody, human IgG1/kappa constant regions) VH: EFQLQQSGPELVKPGASVKISCKASGYSFTDYNMNWVKQSNGKSLEWIGIINPYYGTTSNNQNFKGKATLTVDQSSSTAYMQLNSLTSDDSAVYYCARWLRRDAMDYWGQGTSVTVSS VL: DIVMTPSHKFMSTSVGDRVSIACKASQDVGSSVAWYQQKPGQSPKLLIYWTSTRHTGVPDRFTGSGSGTDFTLTISNVQSEDLADYFCQQYSSYPWTFGGGTKLEIKR")
"1.35e+06"

Kindly consider the entry below.
Could you share which kon value was measured for S009-F8-22.23 (antibody, human IgG1, kappa, V domains shown, human-murine chimeric antibody, human IgG1/kappa constant regions) VH: QVQLKQSGPGLVQPSQSLSITCTVSGFSLFSYGVHWVRQSPGKGLEWLGVIWSGGSTDYNAAFISRLSISKDNSKSQVFFKMNSLQADDTAMYYCARNGGSMITTLYYAMDYWGQGTSVTVSS VL: DVVMTQTPLSLPVSLGDQASISCRSSQSLVHSYGNTYLHWYLQKPGQSPKLLIYKVSNRFSGVPDRFSGSGSGTDFTLKISRVEAEDLGVYFCSQSTHIPFTFGGGTKLEIKR ?
433000
